Test system: plasma cholesterol
Assay: Hypocholesterolemic activity, plasma cholesterol in mice fed test compound in diet
Type: in vivo, OF1 strain mice
Conditions: Mus musculus, feed or water, 240 h, read-out: Plasma Cholesterol (% Control), 0.1% compound in food, 10 days, ca. 180 mg/kg daily, mouse
Label T when change in vivo at 180 mg/kg/day is at or above -20%; otherwise label F.

Does change in vivo at 180 mg/kg/day meet or surpass -20% for CCOP(=O)(OCC)C(NCc1ccc2c(c1)OCO2)c1cc(C(C)(C)C)c(O)c(C(C)(C)C)c1 (stereo not drawn) ?
F

State whether the measured change in vivo at 180 mg/kg/day reaches -20%, counting equality as reaching it, for CCOP(=O)(OCC)C(NC1CCc2ccccc21)c1cc(C(C)(C)C)c(O)c(C(C)(C)C)c1 (stereo not drawn)
T

Would you say CCOP(=O)(OCC)C(NC1CC(C)(C)NC(C)(C)C1)c1cc(C(C)(C)C)c(O)c(C(C)(C)C)c1 (stereo not drawn) shows change in vivo at 180 mg/kg/day at minimum -20%?
T

Exam item: decide whether the reported change in vivo at 180 mg/kg/day for CCOP(=O)(OCC)C(NCc1ccncc1)c1cc(C(C)(C)C)c(O)c(C(C)(C)C)c1 (stereo not drawn) is at least -20%.
T

Others:
# check: change in vivo at 180 mg/kg/day of CCOP(=O)(OCC)C(NC1(c2ccccc2)CCCC1)c1cc(C(C)(C)C)c(O)c(C(C)(C)C)c1 (stereo not drawn) is greater than or equal to -20%
T
